Test system: SK-MEL-28 melanoma
protocol: NCI tumour cell line growth inhibition, 48 h
Listed here: items and their measured TGI.

Example results:
O=c1c2cc(F)ccc2sc2c(N3CCNCC3)nc3ccc(F)cc3c12 | 3.17 µM
CCCCCCCCCCCCCCCCNC(=O)C(=O)/C=C(\O)c1ccc(C)cc1 | > 10 µM
CC1=Nc2c(ccc3c2C(=O)c2ccccc2C3=O)NC(c2cccc3c2CCC3)C1 (stereo not drawn) | > 100 µM
COC(=O)c1cc2c3ccccc3n3c(=O)c4cc5ccc(N(S(=O)(=O)c6ccc(C)cc6)S(=O)(=O)c6ccc(C)cc6)cc5nc4c(n1)c23 | > 100 µM
CC1=CC(=O)CC2(C)CC[C@@H]3C[C@]12OC3(C)C (stereo partly drawn) | > 100 µM
c1cc2c(cc1NC1=NCCO1)OCO2 | > 100 µM
O=C(O)Cc1ccc(Nc2nc3cc(C(F)(F)F)ccc3nc2C(=O)O)cc1 | > 100 µM
COC(=O)C1C(O)CCC2CN3CCc4c([nH]c5ccccc45)C3CC21 (stereo not drawn) | > 100 µM
CC(=O)Nc1ccc(C(=O)NN2C(=O)C(Cl)/C2=C/c2ccco2)cc1 (stereo not drawn) | > 100 µM
CCC[CH2][Sn]([Cl])([Cl])[CH2]CCC | 1.36 µM

# value lookup — system SK-MEL-28 melanoma, readout TGI, item CC(=O)N/N=C1\CC(C)(C)C2CCC1C2 (stereo not drawn) > 100 µM

Now give it for O=C(CCC(=O)Nc1ccc(Cl)c(Cl)c1)CC(=O)c1ccc(Br)cc1 too. > 100 µM

Now give it for O=C(O)CCS/C(=C\C(SCCC(=O)O)c1ccc(Cl)cc1)c1ccc(Cl)cc1 (stereo not drawn) too. > 100 µM

Now give it for C[C@@H]1C[C@H](C)CN(S(=O)(=O)c2ccc3c(NO)c4ccc(S(=O)(=O)N5C[C@H](C)C[C@H](C)C5)cc4c(N=O)c3c2)C1 too. 0.276 µM

Now give it for NC1=C(NC(=O)Cc2ccccc2F)C(=O)c2ccccc2C1=O too. > 100 µM

Now give it for COc1ccc(OC)c(NC(=O)CCC/C(CC(=O)c2ccc(O)c(OC)c2)=N\Nc2nnc(C)n2N)c1 too. > 100 µM

Now give it for COc1cccc(/C(C#N)=C/c2nc3c(N4CCOCC4)nc(Cl)nc3n2C)c1 too. 3.1 µM

====

Test system: KM12 colon
protocol: NCI tumour cell line growth inhibition, 48 h
observable: TGI

Cc1ccc(SC2C(=O)C3CC(OCc4ccccc4)C2(C)C3(C)C)cc1 (stereo not drawn) | > 100 µM
Cc1ccc2c(c1)C(=O)c1nc(C)ccc1C2=O | > 100 µM

Now for the compound whose TGI we want.
Consider the compound CC1=C(C(=O)CC(=O)C(=O)Nc2cc(C)ccc2C)Sc2ccccc2N1 and give its measured TGI. > 100 µM

====

System: EKVX NSCLC
protocol: NCI tumour cell line growth inhibition, 48 h
observable: GI50

Consider the compound CC[n+]1oc(C(=O)c2ccc(Cl)cc2)c(-c2ccccc2)c1-c1ccccc1.[Cl][Fe]([Cl])([Cl])[Cl] and give its measured GI50. 30.4 µM

====

Listed here: items and their measured TGI.
Tested on: OVCAR-8 ovarian
protocol: NCI tumour cell line growth inhibition, 48 h

CCOC(=O)c1nnsc1N/N=C\c1ccc([N+](=O)[O-])cc1 | > 100 µM
Cc1ccc(NC=O)c(-c2c(N)[nH]c(=S)[nH]c2=O)c1 | > 100 µM

Now for the compound whose TGI we want.
Consider the compound N#CN/C(N)=N/C/N=C(\N)NC#N and give its measured TGI. > 100 µM

====

Tested on: LOX IMVI melanoma
protocol: NCI tumour cell line growth inhibition, 48 h
observable: TGI

# value lookup — system LOX IMVI melanoma, readout TGI, item O=C1CC2CC3OC3[C@H]3c4cc5c(cc4C(=O)N1C23)OCO5 (stereo partly specified) > 100 µM

====

Listed here: items and their measured TGI.
Test system: SNB-75 CNS
protocol: NCI tumour cell line growth inhibition, 48 h
Dear colleague, please return just the value in µM, with no unit written.

O=c1/c(=C/c2ccccc2[N+](=O)[O-])sc2nc3ccccc3n12 | 33.5
C[C@@H]1C[C@H](C)CN(S(=O)(=O)c2ccc3c(NO)c4ccc(S(=O)(=O)N5C[C@H](C)C[C@H](C)C5)cc4c(N=O)c3c2)C1 | 0.255

Consider the molecule COc1c(/C=C/C(C)(C)O)cc(C2CC(=O)c3c(O)cc(O)cc3O2)cc1CC=C(C)C (stereo unspecified) and give its measured TGI. 22.8

====

Test system: SK-OV-3 ovarian
protocol: NCI tumour cell line growth inhibition, 48 h
Listed here: items and their measured TGI.

Example results:
CCCNC(=O)C1C(=O)C(=O)N(CCC)C1=O (stereo unspecified) | > 100 µM
Cc1ccc(NC(=O)CCc2nc(N)nc(N)c2-c2ccccc2)cc1C | > 100 µM
O=C(O)CCS/C(=C\C(SCCC(=O)O)c1ccc(Cl)cc1)c1ccc(Cl)cc1 (stereo unspecified) | > 100 µM

# value lookup — system SK-OV-3 ovarian, readout TGI, item Cc1ccccc1OC(C)C(=O)NN1C(=O)CSC1c1ccc(Cl)cc1 (stereo unspecified) > 92.5 µM

Now give it for CN(C)c1ccc(/C=C2\N=C(NNc3ccccc3)NC2=O)cc1 too. > 100 µM

Now give it for COC(=O)c1cc2c3ccccc3n3c(=O)c4cc5ccc(N(S(=O)(=O)c6ccc(C)cc6)S(=O)(=O)c6ccc(C)cc6)cc5nc4c(n1)c23 too. > 100 µM

====

Tested on: SF-295 CNS
protocol: NCI tumour cell line growth inhibition, 48 h
Listed here: items and their measured TGI.

Example results:
COc1ccc(NC(=O)CSC2=C(Nc3cccc(Br)c3)C(=O)N(Cc3ccccc3)C2=O)cc1Cl | > 100 µM
C=C(C(=O)O)[C@@H]1C[C@@H]2O[C@H]1[C@@H](O)[C@@H](C)CCCC(C)=CCC[C@@]2(C)O | > 100 µM
O=C(N/N=C/c1cc(Cl)cc(Cl)c1[O-])c1ccccc1O.O=C(N/N=C/c1cc(Cl)cc(Cl)c1[O-])c1ccccc1O.[Co+2] | 12.9 µM
CC1=CC(=O)CC2(C)CC[C@@H]3C[C@]12OC3(C)C (some centres undefined) | > 100 µM
Cc1nn[n-]n1.N.N.N.N.N.[Cl-].[Co+3] | > 100 µM

Consider the molecule COc1cc(F)c(F)c(Nc2ccc(I)cc2F)c1NS(=O)(=O)C1(C[C@H](O)CO)CC1 and give its measured TGI. > 10 µM

Now give it for CO/N=C(/C)c1cccc(Nc2nc3ccccc3c3[nH]c4ccccc4c23)c1 too. 14.6 µM

Now give it for CCOC(=O)C(Cc1c[nH]c2c(N(CCO)CCO)cccc12)(NC(C)=O)C(=O)OCC too. > 1000 µM

Now give it for Cn1c(-c2c(N)n(Nc3cccc(Cl)c3)c3nc(C#N)c(C#N)nc23)nc2ccccc21 too. 27.8 µM

Now give it for COc1cc2c(c(OC)c1OC)-c1ncc3c(OC)c(OC)c(OC)cc3c1C2 too. 47.1 µM

Now give it for Cc1ccc(NC(=O)CCc2nc(N)nc(N)c2-c2ccccc2)cc1C too. > 100 µM

Now give it for COc1ccc(C2OC(=O)c3ccc4ccccc4c32)c(C)c1 (centres undefined) too. 14.7 µM

Now give it for COC(=O)CCC1=C(CC(=O)OC)C(C)(OC)N=C1NC(=O)OCc1ccccc1 (centres undefined) too. > 100 µM

Now give it for Cc1cc2/c(=C\c3ccc(N(C)C)cc3)c3ccccc3n2[n+]1C too. 12.8 µM

Now give it for O=C1CC(c2ccccc2)C2(C(=O)NC(=S)NC2=O)C(c2ccccc2)C1 (centres undefined) too. > 75 µM

====

System: SN12C renal
protocol: NCI tumour cell line growth inhibition, 48 h
observable: TGI

Example results:
Cc1nc(CC#N)n[nH]1 | > 100 µM
OCc1ccc(N2CCc3cccc(F)c3C2)cc1Cl | > 70.2 µM
Cc1ncc(C(=O)Nc2ccc(CN3CCN(C)CC3)c(C(F)(F)F)c2)cc1C#Cc1cnc2cccnn12 | 3.94 µM

Consider the compound Cn1c(C(=O)c2ccncc2)cc2ccccc21 and give its measured TGI. > 100 µM

Now give it for O=C1/C(=C/c2cccc(Br)c2)COc2ccc(O)cc21 too. 4.28 µM

Now give it for NCCSSCCN too. > 100 µM

====

Listed here: items and their measured TGI.
Test system: K-562 leukemia
protocol: NCI tumour cell line growth inhibition, 48 h

Example results:
O=C1c2ccccc2C(=O)c2cc(N=Nc3c(O)ccc4ccccc34)ccc21 | > 100 µM
COc1cc(C(C)O)c(S(=O)(=O)CC(C)O)nn1 (configuration not stated) | > 100 µM
NS(=O)(=O)c1ccc(-n2nc3c(c2-c2ccc(Cl)cc2)Cc2ccccc2-3)cc1 | 17.2 µM

Consider the compound COC12CCC(=O)C=C1c1ccccc1N2C(C)=O (configuration not stated) and give its measured TGI. > 100 µM

Now give it for C[C@@H]1C[C@H](C)CN(S(=O)(=O)c2ccc3c(NO)c4ccc(S(=O)(=O)N5C[C@H](C)C[C@H](C)C5)cc4c(N=O)c3c2)C1 too. 0.12 µM

Now give it for CO/N=C(/C)c1cccc(Nc2nc3ccccc3c3[nH]c4ccccc4c23)c1 too. > 100 µM
